Target: MAGE-A11:PCF11 interaction (GST-MAGE-A11 MHD and FAM-PCF11_4) (Homo sapiens)
Construct: GST-MAGE-A11 MHD (human MAGE-A11 MHD amino acid 218-429); made in house; host or cells: E. coli BL21(DE3)
Sequence (P43364 218-429): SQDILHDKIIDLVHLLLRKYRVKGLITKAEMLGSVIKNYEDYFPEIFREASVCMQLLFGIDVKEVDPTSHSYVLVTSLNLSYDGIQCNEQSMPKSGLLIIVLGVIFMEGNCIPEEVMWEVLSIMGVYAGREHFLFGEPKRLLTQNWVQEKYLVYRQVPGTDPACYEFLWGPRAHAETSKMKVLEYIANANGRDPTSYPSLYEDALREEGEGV
Assay: TR-FRET dose response test of compounds for disruption of MAGE-A11:PCF11 binding
Details: Dose response TR-FRET screening of nine scaffold groups against MAGE-A11:PCF11; read-out: consensus IC50
Protocol: The TR-FRET assay buffer with a formula of 50 mM Tris pH 7.5, 20 mM MgCl2, 0.1 mg/ml BSA and 1 mM DTT was freshly prepared before each experiment. […] After incubation, the fluorescent emission signals at 520 nm and 490 nm channels of individual wells were measured with a PHERAstar FS plate reader (BMG Labtech; Durham, NC, USA) by using a 340 nm excitation filter, 100 µs delay time, and 200 µs integration time. […]
Overview of reported IC50 across a group of compounds:

| COMPOUND | SYSTEM NAME | VALUE QUALIFIER | IC50, µM |
| --- | --- | --- | --- |
| CCCS(=O)(=O)N1CCN(Cc2ccc3c(c2)c2ccccc2n3CC)CC1 | MAGE-A11:PCF11 interaction (GST-MAGE-A11 MHD and FAM-PCF11_4) (Homo sapiens) | = | 19.2 |
| CCCCCn1c(-c2ccc(F)c(Br)c2)nc2c1c(=O)[nH]c(=O)n2CCCC | MAGE-A11:PCF11 interaction (GST-MAGE-A11 MHD and FAM-PCF11_4) (Homo sapiens) | = | 2.64 |
| Cc1ccc(S(=O)(=O)c2nc(-c3cccc(C)c3)oc2N2CCOCC2)cc1 | MAGE-A11:PCF11 interaction (GST-MAGE-A11 MHD and FAM-PCF11_4) (Homo sapiens) | = | 11.2 |
| COc1ccc(F)cc1CNCCCNc1ccnc2cc(Cc3ccc(F)cc3)ccc12 | MAGE-A11:PCF11 interaction (GST-MAGE-A11 MHD and FAM-PCF11_4) (Homo sapiens) | = | 35.1 |
| COc1cccc(CNCCCNc2ccnc3cc(Oc4ccc(Cl)cc4)ccc23)c1O | MAGE-A11:PCF11 interaction (GST-MAGE-A11 MHD and FAM-PCF11_4) (Homo sapiens) | = | 20.7 |
| COc1ccc(F)cc1CNCCCNc1ccnc2cc(Oc3ccc(C(C)(C)C)cc3)ccc12 | MAGE-A11:PCF11 interaction (GST-MAGE-A11 MHD and FAM-PCF11_4) (Homo sapiens) | = | 6.29 |
| FC(F)(F)c1ccc2c(NCCCNCc3ccc4[nH]ccc4c3)ccnc2c1 | MAGE-A11:PCF11 interaction (GST-MAGE-A11 MHD and FAM-PCF11_4) (Homo sapiens) | = | 0.397 |
| FC(F)(F)c1ccc(-c2ccc3c(NCCCNCc4cccc5c4OCO5)ccnc3c2)cc1 | MAGE-A11:PCF11 interaction (GST-MAGE-A11 MHD and FAM-PCF11_4) (Homo sapiens) | = | 15.7 |
| COc1cc2nc(N(C)CCCNC(=O)C3CCCO3)nc(N)c2cc1OC (centres unmarked) | MAGE-A11:PCF11 interaction (GST-MAGE-A11 MHD and FAM-PCF11_4) (Homo sapiens) | = | 36.2 |
| CC(C)CCc1ccc2c(NCCCNCc3cccc4c3OCO4)ccnc2c1 | MAGE-A11:PCF11 interaction (GST-MAGE-A11 MHD and FAM-PCF11_4) (Homo sapiens) | = | 27.7 |
| COc1cc2nc(N3CCN(C(=O)C4COc5ccccc5O4)CC3)nc(N)c2cc1OC (centres unmarked) | MAGE-A11:PCF11 interaction (GST-MAGE-A11 MHD and FAM-PCF11_4) (Homo sapiens) | = | 57.1 |
| COc1ccc(F)cc1CNCCCNc1ccnc2cc(-c3cccc4ccccc34)ccc12 | MAGE-A11:PCF11 interaction (GST-MAGE-A11 MHD and FAM-PCF11_4) (Homo sapiens) | = | 10.3 |
| COc1cccc(CNCCCNc2ccnc3cc(CCc4ccccc4)ccc23)c1O | MAGE-A11:PCF11 interaction (GST-MAGE-A11 MHD and FAM-PCF11_4) (Homo sapiens) | = | 26.5 |
| CCCCCOc1ccc(N(C(C)=O)C2=C(Cl)C(=O)c3ccccc3C2=O)cc1 | MAGE-A11:PCF11 interaction (GST-MAGE-A11 MHD and FAM-PCF11_4) (Homo sapiens) | = | 28.3 |
| C=CCn1c(=O)c2c(nc(-c3ccccc3)n2C)n(C)c1=O | MAGE-A11:PCF11 interaction (GST-MAGE-A11 MHD and FAM-PCF11_4) (Homo sapiens) | > | 70 |
| Cc1ccccc1NC1=C(N)C(=O)c2ccccc2C1=O | MAGE-A11:PCF11 interaction (GST-MAGE-A11 MHD and FAM-PCF11_4) (Homo sapiens) | > | 70 |
| Cc1ccc(S(=O)(=O)N2CCN(C3=C(Cl)C(=O)c4ccccc4C3=O)CC2)cc1 | MAGE-A11:PCF11 interaction (GST-MAGE-A11 MHD and FAM-PCF11_4) (Homo sapiens) | = | 10.4 |
| COc1ccc(F)cc1CNCCCNc1ccnc2cc(-c3ccccc3)ccc12 | MAGE-A11:PCF11 interaction (GST-MAGE-A11 MHD and FAM-PCF11_4) (Homo sapiens) | = | 28.2 |
| COc1cc(Cc2ccc3c(NCCCNCc4cccc5c4OCO5)ccnc3c2)cc(OC)c1 | MAGE-A11:PCF11 interaction (GST-MAGE-A11 MHD and FAM-PCF11_4) (Homo sapiens) | = | 31.3 |
| COc1ccc(C2Nc3ccccc3C(=O)N2CCCN2CCOCC2)cc1OC(F)F (centres unmarked) | MAGE-A11:PCF11 interaction (GST-MAGE-A11 MHD and FAM-PCF11_4) (Homo sapiens) | > | 70 |
| COc1cccc(Oc2ccc3c(NCCCNCc4cc(F)ccc4OC)ccnc3c2)c1 | MAGE-A11:PCF11 interaction (GST-MAGE-A11 MHD and FAM-PCF11_4) (Homo sapiens) | = | 36.8 |
| COc1ccc(Oc2ccc3c(NCCCNCc4cccc5c4OCO5)ccnc3c2)cc1 | MAGE-A11:PCF11 interaction (GST-MAGE-A11 MHD and FAM-PCF11_4) (Homo sapiens) | = | 43.7 |
| CC(C)(C)c1ccc(O)c(CNCCCNc2ccnc3cc(Cl)ccc23)c1 | MAGE-A11:PCF11 interaction (GST-MAGE-A11 MHD and FAM-PCF11_4) (Homo sapiens) | = | 30.4 |
| COc1cccc(Oc2ccc3c(NCCCNCc4cccc5c4OCO5)ccnc3c2)c1 | MAGE-A11:PCF11 interaction (GST-MAGE-A11 MHD and FAM-PCF11_4) (Homo sapiens) | = | 36.9 |
| CCOc1ccc(C2Nc3ccccc3C(=O)N2CCCN2CCOCC2)cc1 (centres unmarked) | MAGE-A11:PCF11 interaction (GST-MAGE-A11 MHD and FAM-PCF11_4) (Homo sapiens) | = | 67.7 |
| COc1ccc(F)cc1CNCCCNc1ccnc2cc(-c3cc(C(F)(F)F)cc(C(F)(F)F)c3)ccc12 | MAGE-A11:PCF11 interaction (GST-MAGE-A11 MHD and FAM-PCF11_4) (Homo sapiens) | = | 7.69 |
